Ref: paper PMC10783490

subject.of.test: T1, TAM-AT1-AT2 Baz2B R837E (Homo sapiens, UniProt Q9UIF8 721-884, R837E)
T1 sequence: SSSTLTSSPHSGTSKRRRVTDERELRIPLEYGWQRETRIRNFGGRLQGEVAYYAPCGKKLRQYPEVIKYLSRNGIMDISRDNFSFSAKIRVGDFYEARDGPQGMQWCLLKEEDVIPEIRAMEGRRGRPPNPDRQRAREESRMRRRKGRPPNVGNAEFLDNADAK
experiment.summary: EMSA; EMSA: 20 mM HEPES pH 7.5, 30 mM KCl, 1 mM EDTA, 10 mM (NH4)2SO4, 1 mM DTT, 4 C, 10 nM probe; MST: same plus 0.1 ug/ml BSA, 5 nM probe, 25 C; GST-AT-hook and bromodomain EMSA as in cited refs
condition.notes: protein: recombinant; tags: His6
readout.kind: pKd
Quick note: pKd means taking -log10 of the concentration in moles per liter.

For record ATCAGTTCTCCGGGTTGTCAGGTCGACCAGTTGTTCCTTTGAGGT (ssDNA) [45 nt ssDNA FLP015] the listed pKd is 6.61
